Target: CDK5/p25 (Homo sapiens, UniProt Q00535)
Sequence (Q00535 whole entry, species assumed): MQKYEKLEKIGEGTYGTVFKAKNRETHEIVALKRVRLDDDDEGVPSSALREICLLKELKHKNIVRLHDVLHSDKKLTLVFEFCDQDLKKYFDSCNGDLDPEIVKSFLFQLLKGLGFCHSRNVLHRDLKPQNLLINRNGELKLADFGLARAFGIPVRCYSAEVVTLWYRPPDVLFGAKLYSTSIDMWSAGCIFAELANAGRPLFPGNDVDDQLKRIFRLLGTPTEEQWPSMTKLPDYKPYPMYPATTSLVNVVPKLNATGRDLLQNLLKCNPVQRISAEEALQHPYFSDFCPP
Sequence (Q15078 99-307 partner limits assumed, species assumed): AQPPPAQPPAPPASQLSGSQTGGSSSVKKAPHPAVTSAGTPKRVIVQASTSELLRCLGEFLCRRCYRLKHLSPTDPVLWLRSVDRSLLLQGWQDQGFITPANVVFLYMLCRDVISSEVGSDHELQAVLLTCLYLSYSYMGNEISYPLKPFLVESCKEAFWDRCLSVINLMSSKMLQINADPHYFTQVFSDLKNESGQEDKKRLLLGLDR
Experiment: Kinase inhibition assay, CDK5/p25
Format: biochemical
attribute.measured: Inhibitory activity against CDK5/p25 (in words)

compound	assay.result
COc1ccc2c3ccnc(C)c3n(C)c2c1 [Compound 11b, 7-Methoxy-1,9-dimethyl-β-carboline]	totally inactive
CCn1c2cc(OC)ccc2c2ccnc(C)c21 [Compound 11c, 9-Ethyl-7-methoxy-1-methyl-β-carboline]	totally inactive
COc1ccc2c3ccnc(C)c3n(Cc3ccccc3)c2c1 [Compound 11d, 9-Benzyl-7-methoxy-1-methyl-β-carboline]	totally inactive

---

Tested on: CK1δ/ε
Assay: Kinase inhibition assay, CK1δ/ε
Type: biochemical
attribute.measured: Inhibitory activity against CK1δ/ε (in words)

compound	assay.result
CCn1c2cc(OC)ccc2c2ccnc(C)c21 [Compound 11c, 9-Ethyl-7-methoxy-1-methyl-β-carboline]	totally inactive
COc1ccc2c3ccnc(C)c3n(Cc3ccccc3)c2c1 [Compound 11d, 9-Benzyl-7-methoxy-1-methyl-β-carboline]	totally inactive
COc1ccc2c3ccnc(C)c3n(C)c2c1 [Compound 11b, 7-Methoxy-1,9-dimethyl-β-carboline]	totally inactive

---

Biological target: CK1δ/ε
Test: Kinase inhibition assay, CK1δ/ε
Type: biochemical
Conditions: average of triplicate determination (<10% variation); read-out: Kinase inhibitory potency (IC50) CK1δ/ε
pIC50: −log10 of the molar value.
Listing of recorded pIC50 by entry.
attribute.measured: pIC50

compound	rel	assay.result
Nc1ncnc2c3cc([N+](=O)[O-])ccc3n(Cc3ccccc3)c12	<	5.00
COc1ccc2c(c1)[nH]c1c(C)nccc12 [Compound 11a, harmine, reference compound]	=	5.82
Nc1ncnc2c3ccccc3n(Cc3ccccc3)c12 [Compound 1d, 5-Benzyl-5H-pyrimido[5,4-b]indol-4-amine]	=	6.22
Cn1c2ccccc2c2c(N)ncnc21 [Compound 3b, 9-Methyl-9H-pyrimido[4,5-b]indol-4-amine]	=	5.60
Nc1ncnc2[nH]c3cc([N+](=O)[O-])ccc3c12 [Compound 4a, 7-Nitro-9H-pyrimido[4,5-b]indol-4-amine]	=	5.46
Nc1ncnc2c1[nH]c1ccc([N+](=O)[O-])cc12 [Compound 2a, 8-Nitro-5H-pyrimido[5,4-b]indol-4-amine]	<	5.00
CCn1c2ccccc2c2c(N)ncnc21 [Compound 3c, 9-Ethyl-9H-pyrimido[4,5-b]indol-4-amine]	=	5.80
Cn1c2ccc([N+](=O)[O-])cc2c2ncnc(N)c21	<	5.00
CCn1c2cc(OC)ccc2c2ccnc(C)c21 [Compound 11c, 9-Ethyl-7-methoxy-1-methyl-β-carboline]	<	5.00
Nc1ncnc2c1c1ccc([N+](=O)[O-])cc1n2Cc1ccccc1	<	5.00
CCn1c2ccc([N+](=O)[O-])cc2c2ncnc(N)c21	<	5.00
Nc1ncnc2c1[nH]c1ccccc12 [Compound 1a, 5H-Pyrimido[5,4-b]indol-4-amine]	=	5.70
Cn1c2ccccc2c2ncnc(N)c21 [Compound 1b, 5-Methyl-5H-pyrimido[5,4-b]indol-4-amine]	=	5.40
Nc1ncnc2c1c1ccccc1n2Cc1ccccc1 [Compound 3d, 9-Benzyl-9H-pyrimido[4,5-b]indol-4-amine]	=	5.57
Cn1c2cc([N+](=O)[O-])ccc2c2c(N)ncnc21	=	5.55
CCn1c2ccccc2c2ncnc(N)c21 [Compound 1c, 5-Ethyl-5H-pyrimido[5,4-b]indol-4-amine]	=	5.55
Nc1ncnc2[nH]c3ccccc3c12 [Compound 3a, 9H-Pyrimido[4,5-b]indol-4-amine]	=	6.15
COc1ccc2c3ccnc(C)c3n(Cc3ccccc3)c2c1 [Compound 11d, 9-Benzyl-7-methoxy-1-methyl-β-carboline]	<	5.00
CCn1c2cc([N+](=O)[O-])ccc2c2c(N)ncnc21	=	5.80
COc1ccc2c3ccnc(C)c3n(C)c2c1 [Compound 11b, 7-Methoxy-1,9-dimethyl-β-carboline]	<	5.00
